B1: VDR (parent)
chain: VTLELSQLSMLPHLADLVSYSIQK

- Variants of: B1
- experiment: protein stability index of a GFP-peptide fusion (GPS, HEK-293T) (PSI 1-6); higher = more stable;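 also: lentivirally expressed fusions sorted by FACS into six bins by GFP to DsRed ratio, PSI derived from sequencing read proportions per bin multiplied by bin number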
- assayContext: c terminus: a fixed tail appended
Think of 3 as a floor: if protein stability index stands on it or above, it is MET; beneath it, NOT MET.

Solved cases (2 shown):
>>> discretelabel("Q7C")
"NOT MET"
>>> discretelabel("V18A")
"MET"

Challenge: # bool: protein stability index of E4V >= 3
Response given: MET

Challenge: Another variant to check: L17A
Response given: NOT MET

Challenge: Another variant to check: S19K
Response given: NOT MET

Challenge: Another variant to check: P12W
Response given: MET
